- test description: Drug metabolism in mouse liver microsomes at 1 uM after 15 mins by LC-MS/MS analysis
- Format: ADME, microsome
- test context: read-out: Drug metabolism
Field 'label' (enum: condition met / condition not met). Set to condition met when metabolised at 0.25 h, 1 µM is strictly under 80%; else condition not met.

In plain terms, does O=C(Nc1cccc2ccccc12)c1cc(S(=O)(=O)NC2CCCCC2)ccc1F come in under 80% for metabolised at 0.25 h, 1 µM?
condition not met

Moving on to CN(C(=O)c1cccc(S(=O)(=O)NC2CCCC2)c1)c1ccc(F)cc1
condition not met

Moving on to O=C(Nc1ccc(F)cc1)c1cccc(S(=O)(=O)N2CCCC2)c1
condition not met

Moving on to O=C(Nc1ccc(F)c(F)c1)c1cccc(S(=O)(=O)NC2CCCC2)c1
condition not met

Moving on to O=C(Nc1ccc(F)cc1)c1cccc(S(=O)(=O)NC2CCOCC2)c1
condition met

Moving on to O=C(Nc1nccs1)c1cc(S(=O)(=O)NC2CCCCC2)ccc1F
condition not met

Moving on to COc1cc(NC(=O)c2cccc(S(=O)(=O)N[C@H]3CCOC3)c2)ccc1F
condition met

Moving on to O=C(Nc1cccnc1)c1cc(S(=O)(=O)NC2CCCCC2)ccc1F
condition not met

Moving on to O=C(Nc1ccc(F)cc1)c1cccc(S(=O)(=O)NC2CCCCC2)c1
condition not met

Moving on to CC[C@@H](C)NS(=O)(=O)c1cccc(C(=O)Nc2ccc(F)cc2)c1
condition not met

Moving on to CN1CCC(NS(=O)(=O)c2cccc(C(=O)Nc3ccc(F)cc3)c2)CC1
condition met

Moving on to CCC(CC)NS(=O)(=O)c1cccc(C(=O)Nc2ccc(F)cc2)c1
condition not met

Moving on to Cc1cc(F)cc(NC(=O)c2cccc(S(=O)(=O)NC3CCCC3)c2)c1
condition not met

Moving on to O=C(Nc1cc(F)cc(F)c1)c1cccc(S(=O)(=O)NC2CCCC2)c1
condition not met

Moving on to O=C(Nc1ccc(F)c(F)c1)c1cccc(S(=O)(=O)N[C@H]2CCOC2)c1
condition met

Moving on to CC(C)NS(=O)(=O)c1cccc(C(=O)Nc2ccc(F)c(F)c2)c1
condition met

Moving on to CC(=O)N1CCC(NS(=O)(=O)c2cccc(C(=O)Nc3ccc(F)cc3)c2)CC1
condition met

Moving on to O=C(Nc1ccc(F)cc1)c1cccc(NS(=O)(=O)C2CCCCC2)c1
condition not met

Moving on to O=C(Nc1ccncc1)c1cc(S(=O)(=O)NC2CCCCC2)ccc1F
condition met

Moving on to Cc1c(F)ccc(NC(=O)c2cccc(S(=O)(=O)NC3(C)COC3)c2)c1C
condition met

Moving on to O=C(Nc1cccc(S(=O)(=O)NC2CCCCC2)c1)c1ccccc1
condition not met

Moving on to CC(C)NS(=O)(=O)c1cccc(C(=O)Nc2ccc(F)c(C(C)C)c2)c1
condition not met

Moving on to O=C(Nc1ccc(F)cc1)c1cc(S(=O)(=O)NC2CCCC2)ccc1F
condition met

Moving on to O=C(Nc1ccc2ccccc2c1)c1cc(S(=O)(=O)NC2CCCCC2)ccc1F
condition met

Moving on to Cc1ccc(NC(=O)c2cccc(S(=O)(=O)NC3CCCC3)c2)cc1F
condition not met

Moving on to O=C(Nc1ccc(F)cc1)c1cccc(S(=O)(=O)NC2CCCC2)c1
condition not met

Moving on to O=C(Nc1ccc(F)cc1)c1cccc(NC(=O)C2CCCCC2)c1
condition not met

Moving on to Cc1cc(NC(=O)c2cccc(S(=O)(=O)NC3CCCC3)c2)ccc1F
condition not met

Moving on to O=C(Nc1ccc(F)cc1)c1cccc(C(=O)NC2CCCCC2)c1
condition not met

Moving on to Cc1cc(NC(=O)c2cccc(S(=O)(=O)N[C@H]3CCOC3)c2)ccc1F
condition met

Moving on to Cc1c(F)ccc(NC(=O)c2cccc(S(=O)(=O)N[C@H]3CCOC3)c2)c1F
condition met

Moving on to O=C(Nc1ccccc1)c1cc(S(=O)(=O)N2CCCCC2)c(Cl)cc1Cl
condition not met

Moving on to N#Cc1cc(NC(=O)c2cccc(S(=O)(=O)N[C@H]3CCOC3)c2)ccc1F
condition met

Moving on to O=C(Nc1cccc(S(=O)(=O)NC2CCCCC2)c1)c1ccc(F)cc1
condition not met

Moving on to Cc1c(NC(=O)c2cccc(S(=O)(=O)N[C@H]3CCOC3)c2)ccc(F)c1F
condition met

Moving on to O=C(Nc1ccc(F)cc1)c1cccc(S(=O)(=O)NC2COC2)c1
condition met

Moving on to Cc1cc(NC(=O)c2cccc(S(=O)(=O)NC3(C)COC3)c2)ccc1F
condition met

Moving on to O=C(Nc1ccc(F)cc1)c1cccc(NS(=O)(=O)C2CCCC2)c1
condition not met

Moving on to O=C(Nc1ccc(F)cc1)c1cccc(S(=O)(=O)N2CCOCC2)c1
condition met

----------
- test description: Plasma concentration in humanized mouse at 200 mg/kg, sc after 24 hrs by LC-MS/MS analysis
- Format: ADME, organism-based
quantity measured: concentration at 24 h (ng/mL)
Answer in ng/mL, number only, no unit symbol.

concentration at 24 h lookup needed for Cc1cc(NC(=O)c2cccc(S(=O)(=O)N[C@H]3CCOC3)c2)ccc1F , thanks.
1820

----------
- System: HBV genotype D
- test description: Antiviral activity against HBV genotype D infected in human HepG2.2.15 cells assessed as inhibition of viral DNA level treated twice for 3 days measured after 6 days by real time PCR
- Assay type: functional, organism-based
- test context: Hepatitis B virus
pEC50: −log10 of the molar value.
pEC50 vs 6: at or above is criterion met, below is criterion not met.

I'd appreciate it if you could say whether CC(C)NS(=O)(=O)c1cccc(C(=O)Nc2ccc(F)c(F)c2)c1 has pEC50 at least equal to 6.
criterion met

Moving on to CCc1cc(NC(=O)c2cccc(S(=O)(=O)NC(C)C)c2)ccc1F
criterion met

Moving on to O=C(Nc1cccc(F)c1)c1cccc(S(=O)(=O)NC2CCCC2)c1
criterion met

Moving on to O=C(Nc1ccc(F)c(F)c1)c1cccc(S(=O)(=O)N[C@H]2CCOC2)c1
criterion met

Moving on to O=C(Nc1ccc(F)cc1)c1cccc(S(=O)(=O)N2CCCCC2)c1
criterion not met

Moving on to O=C(Nc1nccs1)c1cc(S(=O)(=O)NC2CCCCC2)ccc1F
criterion not met

Moving on to O=C(NC1CCCCC1)c1cc(S(=O)(=O)NC2CCCCC2)ccc1F
criterion not met

Moving on to Cc1cc(NC(=O)c2cccc(S(=O)(=O)NC3(C)COC3)c2)c(C)cc1F
criterion not met

Moving on to O=C(Nc1ccc(F)cc1)c1cccc(C(=O)NC2CCCCC2)c1
criterion not met

Moving on to O=C(Nc1ccccc1)c1ccc(F)c(S(=O)(=O)NC2CCCCC2)c1
criterion not met

Moving on to O=C(Nc1ccc(F)cc1)c1cccc(S(=O)(=O)N2CCCC2)c1
criterion not met

Moving on to Cc1ccc(NC(=O)c2cccc(S(=O)(=O)NC3CCCC3)c2)cc1F
criterion not met

Moving on to CC(=O)N1CCN(S(=O)(=O)c2cccc(C(=O)Nc3ccc(F)cc3)c2)CC1
criterion not met

Moving on to Cc1cc(NC(=O)c2cccc(S(=O)(=O)NC(C)C)c2)ccc1F
criterion met

Moving on to Cc1cc(NC(=O)c2cccc(S(=O)(=O)N[C@H]3CCOC3)c2)c(F)cc1F
criterion not met

Moving on to CN1CCC(NS(=O)(=O)c2cccc(C(=O)Nc3ccc(F)cc3)c2)CC1
criterion not met

Moving on to Cc1ccccc1NC(=O)c1cccc(S(=O)(=O)NC2CCCCC2)c1
criterion not met

----------
- test description: Drug uptake in C57BL/6 mouse plasma at 50 mg/kg, sc after 24 hrs by LC-MS/MS analysis
- Format: ADME, organism-based
quantity measured: concentration at 24 h (ng/mL)
Answer in ng/mL, number only, no unit symbol.

concentration at 24 h lookup needed for Cc1cc(NC(=O)c2cccc(S(=O)(=O)N[C@H]3CCOC3)c2)ccc1F , thanks.
102

----------
- test description: Half life in humanized mouse at 200 mg/kg, sc for 8 days measured on day 8 post last dose by LC-MS/MS analysis
- Assay type: ADME, organism-based
- test context: in vivo
quantity measured: half-life

half-life lookup needed for Cc1cc(NC(=O)c2cccc(S(=O)(=O)N[C@H]3CCOC3)c2)ccc1F , thanks.
726 min

----------
- test description: Half life in humanized mouse at 50 mg/kg, sc for 8 days measured on day 8 post last dose by LC-MS/MS analysis
- Assay type: ADME, organism-based
- test context: in vivo
quantity measured: half-life (min)
Answer in min, number only, no unit symbol.

half-life lookup needed for Cc1cc(NC(=O)c2cccc(S(=O)(=O)N[C@H]3CCOC3)c2)ccc1F , thanks.
372
